B1: Pistol ribozyme (parent)
chain: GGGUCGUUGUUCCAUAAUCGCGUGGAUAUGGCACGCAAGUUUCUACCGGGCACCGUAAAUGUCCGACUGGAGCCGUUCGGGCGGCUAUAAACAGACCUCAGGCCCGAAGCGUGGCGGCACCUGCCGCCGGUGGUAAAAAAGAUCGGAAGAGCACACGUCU

Variants of: B1
assay_remarks: aptazyme ON/OFF ratio, guanine; higher = stronger switching; co-transcriptional cleavage with and without guanine
# key: entry, value: aptazyme ON/OFF ratio
A bare number is all that is needed in reply.

mutant_name: U7G U8G U10G C13G
result: 1.47
//
mutant_name: U7C U8C G9C U10G U11A C12G C13A
result: 1.05
//
mutant_name: U7A U8A U10C U11C C12U C13A
result: 1.04

Task: What value of aptazyme ON/OFF ratio has been recorded for this entry: U8G U11G C13G
Result: 1.05

Task: What value of aptazyme ON/OFF ratio has been recorded for this entry: U7A G9A U10G C12A C13A
Result: 1.17

Task: What value of aptazyme ON/OFF ratio has been recorded for this entry: U8C G9A U10C U11C C12G C13A
Result: 1.24

Task: What value of aptazyme ON/OFF ratio has been recorded for this entry: U7A U8G G9A U10G C12G
Result: 1.36

Task: What value of aptazyme ON/OFF ratio has been recorded for this entry: U7A U8A U10C C12A C13U
Result: 1.18

Task: What value of aptazyme ON/OFF ratio has been recorded for this entry: U8A G9C U10G U11G C12U C13G
Result: 1.08

Task: What value of aptazyme ON/OFF ratio has been recorded for this entry: U7G U8C G9C U10A C12A C13U
Result: 1.05

Task: What value of aptazyme ON/OFF ratio has been recorded for this entry: U7G U8G G9U U10A U11G C12U C13G
Result: 1.11
